Biological target: T1, human TGFβ1 (human, UniProt P01137 279-390)
T1 construct: also called TGFβ1 homodimer
T1 sequence (P01137 279-390 limits assumed): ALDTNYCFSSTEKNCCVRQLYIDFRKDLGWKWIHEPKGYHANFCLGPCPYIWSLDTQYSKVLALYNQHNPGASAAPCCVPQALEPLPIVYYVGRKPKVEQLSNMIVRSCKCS
Test: Biacore off-rate vs wt GC1008, 50 nM
Field: kd var/kd wt. Provide a value for each of the binders that follow.
The reply should be a number, written without any unit.

**Q:** Give the value of kd var/kd wt reported for the following: L104W (antibody, V domains shown, GC1008 IgG4 variant) VH: QVQLVQSGAEVKKPGSSVKVSCKASGYTFSSNVISWVRQAPGQGLEWMGGVIPIVDIANYAQRFKGRVTITADESTSTTYMELSSLRSEDTAVYYCASTLGLVWDAMDYWGQGTLVTVSS VL: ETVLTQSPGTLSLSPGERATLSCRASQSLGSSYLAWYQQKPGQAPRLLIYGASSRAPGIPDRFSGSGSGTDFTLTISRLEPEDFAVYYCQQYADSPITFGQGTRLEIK
**A:** 4.7

**Q:** Give the value of kd var/kd wt reported for the following: N59R (antibody, V domains shown, GC1008 IgG4 variant) VH: QVQLVQSGAEVKKPGSSVKVSCKASGYTFSSNVISWVRQAPGQGLEWMGGVIPIVDIARYAQRFKGRVTITADESTSTTYMELSSLRSEDTAVYYCASTLGLVLDAMDYWGQGTLVTVSS VL: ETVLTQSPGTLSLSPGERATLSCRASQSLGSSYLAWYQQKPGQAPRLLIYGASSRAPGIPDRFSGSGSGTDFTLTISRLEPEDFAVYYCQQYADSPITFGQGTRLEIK
**A:** 2.4
